Tested on: HOP-62 NSCLC
Experiment: NCI-60 one-dose screen, 48 h
Settings: 10 µM
The panel holds about 83,000 compounds, 20% with a hit somewhere; the sample as a whole holds those more often. Activity calls are given as the source filed them. How the source made its calls: active means growth percent below 10; inactive means the rest.
The reply should name one outcome from label 1 for active, label 0 for inactive

>>> group_label("O=C(Nc1ccncc1)C(=O)c1cn(S(=O)(=O)c2cccc3ccccc23)c2ccccc12")
"label 0"
>>> group_label("CCN(CCCCCCN1CC(=O)N(CCCCCCN(CC)Cc2ccccc2OC)CC1=O)Cc1ccccc1OC")
"label 0"

Enquiry: So what was the verdict on CCCC(F)C(=O)O (stereo unspecified) in this test?
Return: label 0

Enquiry: So what was the verdict on O=C(CC(c1ccccc1)N1CCOCC1)c1ccccc1 (stereo unspecified) in this test?
Return: label 0

Enquiry: So what was the verdict on `Nc1nc(Nc2ccccc2)n[nH]1` in this test?
Return: label 0

Enquiry: So what was the verdict on `Cc1cccc2c1O/C(=C\c1ccc([N+](=O)[O-])o1)C2=O` in this test?
Return: label 1
